Tested on: SHP-77 (Small Cell Lung Carcinoma)
Assay: combination Emax (second highest fraction inhibited in the dose matrix, 72 h); higher = more inhibition; extreme values may be limits of the assay
For each entry below, report its combination Emax value.
Reply with the value as a number alone.

Problem: Which combination Emax value is on record for CN(CCO)CC[C@H](CSc1ccccc1)Nc1ccc(S(=O)(=O)NC(=O)c2ccc(N3CCC([C@@H](O)c4ccccc4-c4ccc(Cl)cc4)CC3)cc2)cc1S(=O)(=O)C(F)(F)F [AZD4320] + Nc1ccn([C@@H]2O[C@H](CO)[C@@H](O)C2(F)F)c(=O)n1 [Gemcitabine] (first compound max 1 µM, 7x7, partner max 0.3 µM) ?
Result: 0.549

Problem: Moving on to N#Cc1cnc(Nc2cc(NC[C@H]3CNCCO3)c(C(F)(F)F)cn2)cn1 [SRA737] + CCc1c2c(nc3ccc(O)cc13)-c1cc3c(c(=O)n1C2)COC(=O)[C@]3(O)CC [SN-38] (first compound max 10 µM, 7x7, partner max 0.3 µM)
Result: 0.912

Problem: Param item: O=C(c1cc(Cc2n[nH]c(=O)c3ccccc23)ccc1F)N1CCN(C(=O)C2CC2)CC1 [Olaparib] + CC1(C)CCC(CN2CCN(c3ccc(C(=O)NS(=O)(=O)c4ccc(NCC5CCOCC5)c([N+](=O)[O-])c4)c(Oc4cnc5[nH]ccc5c4)c3)CC2)=C(c2ccc(Cl)cc2)C1 [Venetoclax] (first compound max 10 µM, 7x7, partner max 1 µM)
Result: 0.258

Problem: Do the same for Cc1cc2ncnn2cc1Nc1ncc2c(n1)n(C1CCOCC1)c(=O)n2C [AZD7648] + COc1cc([C@@H]2c3cc4c(cc3[C@@H](O[C@@H]3O[C@@H]5CO[C@@H](C)O[C@H]5[C@H](O)[C@H]3O)[C@H]3COC(=O)[C@H]23)OCO4)cc(OC)c1O [Etoposide] (first compound max 10 µM, 7x7, partner max 10 µM) please
Result: 0.546

Problem: Please do the same for Cn1cnc2c(F)c(Nc3ccc(Br)cc3Cl)c(C(=O)NOCCO)cc21 [Selumetinib] + C[C@@H]1COCCN1C2=NC(=NC(=C2)C3(CC3)[S@](=N)(=O)C)C4=C5C=CNC5=NC=C4 [AZD6738] (first compound max 10 µM, 7x7, partner max 10 µM) as well.
Result: 0.569

Problem: And then CN(CCO)CC[C@H](CSc1ccccc1)Nc1ccc(S(=O)(=O)NC(=O)c2ccc(N3CCC([C@@H](O)c4ccccc4-c4ccc(Cl)cc4)CC3)cc2)cc1S(=O)(=O)C(F)(F)F [AZD4320] + C[C@@H]1COCCN1C2=NC(=NC(=C2)C3(CC3)[S@](=N)(=O)C)C4=C5C=CNC5=NC=C4 [AZD6738] (first compound max 1 µM, 7x7, partner max 10 µM) , what is it?
Result: 0.662

Problem: Same thing, different compound: CN(C)CCCOc1ccc(-c2ccc3ncc4c(c3c2)n(C2CCOCC2)c(=O)n4C)cn1 [AZD0156] + CCN(CCO)CCCOc1ccc2c(Nc3cc(CC(=O)Nc4cccc(F)c4)[nH]n3)ncnc2c1 [AZD2811] (first compound max 1 µM, 7x7, partner max 1 µM)
Result: 0.237

Problem: Another compound: CS(=O)(=O)CCNCc1ccc(-c2ccc3ncnc(Nc4ccc(OCc5cccc(F)c5)c(Cl)c4)c3c2)o1 [Lapatinib] + C[C@@H](Oc1cc(-c2cnn(C3CCNCC3)c2)cnc1N)c1c(Cl)ccc(F)c1Cl [Crizotinib] (first compound max 10 µM, 7x7, partner max 10 µM)
Result: 0.817

Problem: Same thing, different compound: CC1(C)CCC(CN2CCN(c3ccc(C(=O)NS(=O)(=O)c4ccc(NCC5CCOCC5)c([N+](=O)[O-])c4)c(Oc4cnc5[nH]ccc5c4)c3)CC2)=C(c2ccc(Cl)cc2)C1 [Venetoclax] + COc1cc(Nc2ncc3c(n2)-c2ccc(Cl)cc2C(c2c(F)cccc2OC)=NC3)ccc1C(=O)O [Alisertib] (first compound max 1 µM, 7x7, partner max 10 µM)
Result: 0.719

Problem: And the next one, COc1cccc2c1C(=O)c1c(O)c3c(c(O)c1C2=O)C[C@@](O)(C(=O)CO)C[C@@H]3O[C@H]1C[C@H](N)[C@H](O)[C@H](C)O1 [Doxorubicin] + Cc1cc2ncnn2cc1Nc1ncc2c(n1)n(C1CCOCC1)c(=O)n2C [AZD7648] (first compound max 1 µM, 7x7, partner max 10 µM) ?
Result: 0.562

Problem: Same question, Cc1c2c(nn1C)CSCc1cc(n(C)n1)CSc1cc(c3ccccc3c1)OCCCc1c(C(=O)O)n(C)c3c-2c(Cl)ccc13 [AZD5991] + CC1(C)CCC(CN2CCN(c3ccc(C(=O)NS(=O)(=O)c4ccc(NCC5CCOCC5)c([N+](=O)[O-])c4)c(Oc4cnc5[nH]ccc5c4)c3)CC2)=C(c2ccc(Cl)cc2)C1 [Venetoclax] (first compound max 1 µM, 7x7, partner max 1 µM) this time
Result: 0.753

Problem: Likewise for Cc1cc2ncnn2cc1Nc1ncc2c(n1)n(C1CCOCC1)c(=O)n2C [AZD7648] + CCN(CCO)CCCOc1ccc2c(Nc3cc(CC(=O)Nc4cccc(F)c4)[nH]n3)ncnc2c1 [AZD2811] (first compound max 10 µM, 7x7, partner max 1 µM) ?
Result: 0.258
